target: C1qstem_nc2, P02745;P02746; test: SPR; details: chain shown with the change; immobilized C1qstem_nc2; parent: est. 100; read off a plot
Sequence (chain, as listed by the source, chain 1 of 3): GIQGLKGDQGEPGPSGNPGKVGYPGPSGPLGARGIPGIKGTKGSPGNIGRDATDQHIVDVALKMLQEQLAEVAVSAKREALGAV
Sequence (chain, as listed by the source, chain 2 of 3): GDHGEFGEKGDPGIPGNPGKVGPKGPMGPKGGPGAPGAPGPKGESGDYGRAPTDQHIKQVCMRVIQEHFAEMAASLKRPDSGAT
Sequence (chain, as listed by the source, chain 3 of 3): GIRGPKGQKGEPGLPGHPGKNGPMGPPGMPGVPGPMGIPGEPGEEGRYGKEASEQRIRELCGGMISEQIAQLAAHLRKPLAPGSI
The entries below come with measured percent of parent (% of LAIR-1 WT binding) values attached.
readout name: percent of parent (% of LAIR-1 WT binding)

{"columns": ["binder", "data value"],
 "data": [
  ["LAIR-1 Ig-like domain, wild type, Q6GTX8 E111K (protein) QEEDLPRPSISAEPGTVIPLGSHVTFVCRGPVGVQTFRLERDSRSTYNDTEDVSQASPSESEARFRIDSVREGNAGLYRCIYYKPPKWSKQSDYLELLVKE", 34],
  ["LAIR-1 Ig-like domain, wild type, Q6GTX8 E61A (protein) QEEDLPRPSISAEPGTVIPLGSHVTFVCRGPVGVQTFRLARDSRSTYNDTEDVSQASPSESEARFRIDSVREGNAGLYRCIYYKPPKWSEQSDYLELLVKE", 6],
  ["LAIR-1 Ig-like domain, wild type, Q6GTX8 I102L (protein) QEEDLPRPSISAEPGTVIPLGSHVTFVCRGPVGVQTFRLERDSRSTYNDTEDVSQASPSESEARFRIDSVREGNAGLYRCLYYKPPKWSEQSDYLELLVKE", 20],
  ["LAIR-1 Ig-like domain, wild type, Q6GTX8 P107R (protein) QEEDLPRPSISAEPGTVIPLGSHVTFVCRGPVGVQTFRLERDSRSTYNDTEDVSQASPSESEARFRIDSVREGNAGLYRCIYYKPRKWSEQSDYLELLVKE", 69],
  ["LAIR-1 Ig-like domain, wild type, Q6GTX8 E72K (protein) QEEDLPRPSISAEPGTVIPLGSHVTFVCRGPVGVQTFRLERDSRSTYNDTKDVSQASPSESEARFRIDSVREGNAGLYRCIYYKPPKWSEQSDYLELLVKE", 21]
]}

Origin of values: paper PMC8151509
